// reported MIC per item
# System: Staphylococcus aureus (MSSA)
# experimental_conditions: 24 h
// units = µg/mL; emit number, no label

{"columns": ["compound", "value_kind", "quantity_unit", "numeric_value"],
 "data": [
  ["CCCCCCCCCCCCCCC(=O)NC(CC(=O)O)C(=O)NC1C(=O)N2CCCCC2C(=O)NC(C(C)C(=O)O)C(=O)NC(CC(=O)O)C(=O)NCC(=O)NC(CC(=O)O)C(=O)NCC(=O)NC(C(C)NC(=O)CCCCCCCCC)C(=O)NC(C(C)C)C(=O)N2CCCC2C(=O)NC1C (stereo not drawn)", "MIC", "µg/mL", 2]
]}

query: Which MIC is reported for this compound? CCCCCCCCCCCCCCC(=O)NC(CC(=O)O)C(=O)NC1C(=O)N2CCCCC2C(=O)NC(C(C)C(=O)O)C(=O)NC(CC(=O)O)C(=O)NCC(=O)NC(CC(=O)O)C(=O)NCC(=O)NC(C(C)NC(=O)[C@H](N)Cc2ccc(O)cc2)C(=O)NC(C(C)C)C(=O)N2CCCC2C(=O)NC1C (stereo partly drawn)
result: 32

query: One more compound: CCCCCCCCCCCCCCC(=O)NC(CC(=O)O)C(=O)NC1C(=O)N2CCCCC2C(=O)NC(C(C)C(=O)O)C(=O)NC(CC(=O)O)C(=O)NCC(=O)NC(CC(=O)O)C(=O)NCC(=O)NC(C(C)NC(=O)CCCCCNC(=O)CN)C(=O)NC(C(C)C)C(=O)N2CCCC2C(=O)NC1C (stereo not drawn)
result: 4

----------
# Tested on: Staphylococcus aureus (MSSA)
# experimental_conditions: 24 h
Starred links: 1 amine or outer side, 2 acyl side, 3 side chain; linkers in the order of their positions; H or OH if unused. Positions of bridges follow the written chain, without caps; N, C: chain ends. Non-standard residues stand in square brackets, D forms with d. Residues, ends and D or L forms follow the SMILES beside them. ξ: configuration not given here. *: point of attachment. ξAbu(βξ-NH2) = CC(N[*:3])C(N[*:1])C(=O)[*:2]; ξAsp(βξ-Me) = CC(C(=O)O)C(N)C(=O)O; Palmitoyl = CCCCCCCCCCCCCCCC(=O)*; ξAbu(3ξ-NH2) = CC(N)C(N)C(=O)O; Pip = O=C(O)[CH]1CCCCN1
// reported MIC per item
// units = µg/mL; emit number, no label

{"columns": ["molecule", "numeric_value"],
 "data": [
  ["CCCCCCCCCCCCCCC(=O)NC(CC(=O)O)C(=O)NC1C(=O)N2CCCCC2C(=O)NC(C(C)C(=O)O)C(=O)NC(CC(=O)O)C(=O)NCC(=O)NC(CC(=O)O)C(=O)NCC(=O)NC(C(C)NC(=O)CNC(=O)[C@@H](N)CC(C)C)C(=O)NC(C(C)C)C(=O)N2CCCC2C(=O)NC1C (stereo partly drawn)", 1]
]}

query: Which MIC is reported for this molecule? CCCCCCCCCCCCCCCC(=O)NCC(=O)NC(CC(=O)O)C(=O)NC1C(=O)N2CCCCC2C(=O)NC(C(C)C(=O)O)C(=O)NC(CC(=O)O)C(=O)NCC(=O)NC(CC(=O)O)C(=O)NCC(=O)NC(C(C)N)C(=O)NC(C(C)C)C(=O)N2CCCC2C(=O)NC1C (stereo not drawn) [Compound 106, C16-Gly-Amphomycin] (Palmitoyl-GD[ξAbu(βξ-NH2)][Pip][ξAsp(βξ-Me)]DGDG[ξAbu(3ξ-NH2)]VP; lactam 3-C; configuration not given here)
result: 0.5
